Parameter: melting point. Scope: all listed entries.

given_smiles: COc1ccccc1Nc1cc(-c2c(-c3cccc(C)c3)nc3cccnn23)ccn1
melting point: 157 to 158 °C

given_smiles: Cc1cccc(-c2nc3cccnn3c2-c2ccnc(NC(=O)NC(C)C)c2)c1
melting point: 193 to 195 °C

given_smiles: Cc1cc(-c2nc3cccnn3c2-c2ccnc(NC(=O)c3ccc(C(F)(F)F)nc3)c2)ccc1F
melting point: 225 to 226 °C

given_smiles: Cc1cc(-c2nc3cccnn3c2-c2ccnc(NC(=O)NCCCCO)c2)ccc1F.Cl
melting point: 188 to 189 °C

given_smiles: Cc1cccc(-c2nc3ccc(S(C)(=O)=O)nn3c2-c2ccnc(NC3CCCCC3)c2)c1
melting point: 196 to 197 °C

given_smiles: Cc1cccc(-c2nc3cccnn3c2-c2ccnc(NC(=O)NC3CCOCC3)c2)c1
melting point: 222 °C

given_smiles: Cc1cc(-c2nc3cccnn3c2-c2ccnc(NC(=O)Nc3ccsc3)c2)ccc1F
melting point: 234 to 235 °C

given_smiles: Cc1cccc(-c2nc3ccc(Cl)nn3c2-c2ccnc(N)c2)c1
melting point: 247 to 248 °C

* * *

measured_attribute: melting point

given_smiles: COc1cc(Cl)nn2c(-c3ccnc(N)c3)c(-c3ccc(F)c(C)c3)nc12
measured_attribute: melting point
result: 200 to 201 °C

given_smiles: Cc1cc(-c2nc3c(C)ccnn3c2-c2ccnc(NC(=O)c3ccc(F)cc3)c2)ccc1F
measured_attribute: melting point
result: 243 to 244 °C

given_smiles: Cc1cc(-c2nc3cccnn3c2-c2ccnc(NC(=O)NC3CCOCC3)c2)ccc1F
measured_attribute: melting point
result: 240 to 241 °C

given_smiles: Cc1cc(-c2nc3cc(C(C)(C)C)c(Cl)nn3c2-c2ccnc(NC(=O)c3ccc(F)cc3)c2)ccc1F
measured_attribute: melting point
result: 181 to 182 °C

given_smiles: Cc1cc(-c2nc3cccnn3c2-c2ccnc(NC(=O)c3ccc(Cl)cc3C)c2)ccc1F
measured_attribute: melting point
result: 196 to 197 °C

given_smiles: Cc1cccc(-c2nc3cccnn3c2-c2ccnc(NC(=O)N3CCc4ccccc4C3)c2)c1
measured_attribute: melting point
result: 122 to 124 °C

given_smiles: CNC(=O)Nc1cc(-c2c(-c3ccc(F)c(C)c3)nc3cccnn23)ccn1
measured_attribute: melting point
result: 225 to 227 °C

given_smiles: CCC(=O)Nc1cc(-c2c(-c3cccc(Cl)c3)nc3cccnn23)ccn1
measured_attribute: melting point
result: 192 to 193 °C

given_smiles: Cc1cccc(-c2nc3ccc(Cl)nn3c2-c2ccnc(Nc3ccc(F)cc3C)c2)c1
measured_attribute: melting point
result: 191 to 192 °C

* * *

# Tested on: TNF-α production in THP-1 cells
# assay_protocol: Measurement of TNF-α production inhibitory activity in LPS-stimulated THP-1 cells (ELISA)
# Type: cell-based
# test_settings: Homo sapiens, LPS 5 μg/mL, 4 hours, TNF-α in supernatant by ELISA
Parameter: IC50. Scope: all listed entries.

compound: Cc1cccc(-c2nc3ccc(Cl)nn3c2-c2ccnc(NC3CCCCC3)c2)c1 [Example 2]
target_desc: TNF-α production in THP-1 cells
IC50 / µM: 0.028

compound: Cc1cc(-c2nc3cccnn3c2-c2ccnc(NC(=O)NCCC#N)c2)ccc1F [Example 51-14]
target_desc: TNF-α production in THP-1 cells
IC50 / µM: 0.001

compound: Cc1cccc(-c2nc3cccnn3c2-c2ccnc(NC(=O)Nc3ccccc3)c2)c1 [Example 26]
target_desc: TNF-α production in THP-1 cells
IC50 / µM: 0.33

compound: Cc1cccc(-c2nc3cccnn3c2-c2ccnc(Nc3ccccc3C)c2)c1 [Example Compound 6-10]
target_desc: TNF-α production in THP-1 cells
IC50 / µM: 0.0098

compound: Cc1cc(-c2nc3cccnn3c2-c2ccnc(NC(=O)c3cccnc3)c2)ccc1F [Example 59]
target_desc: TNF-α production in THP-1 cells
IC50 / µM: 0.0029

compound: Cc1cccc(-c2nc3cccnn3c2-c2ccnc(NC(=O)c3ccc(F)cc3)c2)c1 [Example compound 20-11]
target_desc: TNF-α production in THP-1 cells
IC50 / µM: 0.0038

compound: CCNC(=O)Nc1cc(-c2c(-c3ccc(F)c(C)c3)nc3cccnn23)ccn1 [Example compound 28-3]
target_desc: TNF-α production in THP-1 cells
IC50 / µM: 0.045

compound: Cc1cc(C(=O)Nc2cc(-c3c(-c4ccc(F)c(C)c4)nc4cccnn34)ccn2)ccn1 [Example 58]
target_desc: TNF-α production in THP-1 cells
IC50 / µM: 0.0022

compound: Cc1cccc(-c2nc3cccnn3c2-c2ccnc(NCC3CC3)c2)c1 [Example 5]
target_desc: TNF-α production in THP-1 cells
IC50 / µM: 0.0039

compound: Cc1cccc(-c2nc3ccc(Cl)nn3c2-c2ccnc(F)c2)c1 [Example 1]
target_desc: TNF-α production in THP-1 cells
IC50 / µM: 0.95

compound: COc1ccc(C(=O)Nc2cc(-c3c(-c4ccc(F)c(C)c4)nc4cccnn34)ccn2)cc1 [Example 21-16]
target_desc: TNF-α production in THP-1 cells
IC50 / µM: 0.014

compound: Cc1cccc(-c2nc3cccnn3c2-c2ccnc(NC(=O)C3CC3)c2)c1 [Example compound 20-10]
target_desc: TNF-α production in THP-1 cells
IC50 / µM: 0.0054

compound: Cc1cc(-c2nc3cccnn3c2-c2ccnc(NC(=O)c3ccc(F)cc3)c2)ccc1F [Example 41-1]
target_desc: TNF-α production in THP-1 cells
IC50 / µM: 0.015

compound: Cc1cc(-c2nc3cccnn3c2-c2ccnc(NC(=O)c3ccc4ncsc4c3)c2)ccc1F [Example 42-35]
target_desc: TNF-α production in THP-1 cells
IC50 / µM: 0.0025

compound: Cc1cc(-c2nc3cccnn3c2-c2ccnc(NC(=O)c3ccncc3)c2)ccc1F [Example 42-23]
target_desc: TNF-α production in THP-1 cells
IC50 / µM: 0.01

compound: Cc1ccc(C(=O)Nc2cc(-c3c(-c4ccc(F)c(C)c4)nc4cccnn34)ccn2)cn1 [Example 42-27]
target_desc: TNF-α production in THP-1 cells
IC50 / µM: 0.0015

compound: Cc1ccc(C(=O)Nc2cc(-c3c(-c4cccc(C)c4)nc4cccnn34)ccn2)cc1 [Example 20-1]
target_desc: TNF-α production in THP-1 cells
IC50 / µM: 0.018

compound: Cc1cc(-c2nc3cccnn3c2-c2ccnc(NC(=O)NCCO)c2)ccc1F [Example 51-11]
target_desc: TNF-α production in THP-1 cells
IC50 / µM: 0.01

compound: Cc1cccc(-c2nc3ccc(N(C)C)nn3c2-c2ccnc(NC3CCCCC3)c2)c1 [Example 7]
target_desc: TNF-α production in THP-1 cells
IC50 / µM: 0.0001

compound: Cc1cccc(-c2nc3cccnn3c2-c2ccnc(NC(=O)c3ccccc3)c2)c1 [Example 19]
target_desc: TNF-α production in THP-1 cells
IC50 / µM: 0.018

compound: CSCC(=O)Nc1cc(-c2c(-c3ccc(F)c(C)c3)nc3cccnn23)ccn1 [Example 42-6]
target_desc: TNF-α production in THP-1 cells
IC50 / µM: 0.0061

compound: Cc1cc(-c2nc3cccnn3c2-c2ccnc(NC(=O)C3CC3)c2)ccc1F [Example 42-3]
target_desc: TNF-α production in THP-1 cells
IC50 / µM: 0.0095

compound: Cc1cc(-c2nc3cccnn3c2-c2ccnc(NC(=O)c3ccc4ncccc4c3)c2)ccc1F [Example 42-36]
target_desc: TNF-α production in THP-1 cells
IC50 / µM: 0.0071

compound: CC(=O)Nc1cc(-c2c(-c3cccc(C)c3)nc3ccc(Cl)nn23)ccn1 [Example 17]
target_desc: TNF-α production in THP-1 cells
IC50 / µM: 0.12

compound: Cc1cccc(-c2nc3cccnn3c2-c2ccnc(F)c2)c1 [Example 4]
target_desc: TNF-α production in THP-1 cells
IC50 / µM: 0.32

compound: Cc1cc(-c2nc3cccnn3c2-c2ccnc(NC(=O)NC(C)C)c2)ccc1F [Example compound 28-5]
target_desc: TNF-α production in THP-1 cells
IC50 / µM: 0.064
